Tested on: G-401 cells
assay-details: Cell proliferation inhibition experiment using G-401 cells
Type: cell-based
condition: Homo sapiens, 72 h, cultured for 3 days, CellTiter-Glo
pIC50: −log10 of the molar value.
In this section we review reported pIC50 values for a set of molecules.
metric-name: pIC50

> print(dat)
                                item.smiles  metric.name  observed.value
1  O=C1N[C@]2(C[C@@H](F)c3cc(-c4cnn(C5CN(C6COC6)C5)c4)ccc32)C(=O)N1CC(=O)N(Cc1ccc(F)cc1)C1(C(F)(F)F)COC1        pIC50            7.36
2  CN1CC(N(Cc2ccc(F)cc2)C(=O)CN2C(=O)N[C@]3(C[C@@H](F)c4cc(-c5cnn(C)c5F)ccc43)C2=O)(C(F)(F)F)C1        pIC50            7.48
3  CN1CC(F)(Cn2cc(-c3ccc4c(c3)CC[C@]43NC(=O)N(CC(=O)N(Cc4ccc(F)cc4)C4(C(F)(F)F)COC4)C3=O)cn2)C1        pIC50            7.05
